These measurements were taken from the Immune Epitope Database (IEDB).

# target_or_test_system: HLA-B*51:01
# assay_summary: IEDB peptide-MHC binding, purified MHC/competitive/fluorescence; filed as Kd, often an IC50 or EC50 that approximates it; bounds were set here for any values at or beyond the usual limits of such assays
# test_conditions: source organism: Orthohantavirus andesense
pKd: −log10 of the molar value.
reported_endpoint: pKd

The recorded pKd for entry `TRDHVNLVL` equals ≤ 4.70

* * *

# target_or_test_system: HLA-A*68:02
# assay_summary: IEDB peptide-MHC binding, purified MHC/competitive/fluorescence; filed as Kd, often an IC50 or EC50 that approximates it; bounds were set here for any values at or beyond the usual limits of such assays
# test_conditions: source organism: Vaccinia virus WR
reported_endpoint: Kd (nM)
Give bare numbers, in nM.

Measured Kd of `LTFLHTLYK` : 1090
